- Test Description: Cytotoxicity evaluation (cell number in Coulter after 96 hours)
- Format: cell-based
- Measurement Setup: human, mt4 cells; in association with 15 µM of EHNA; Fig. 2; read-out: MNTD of ddAdo
- Source text: The cellular lines utilized in this study were: H9, T lymphocytes, CD4+, permissive for the HIV replication but partially resistant to its cytopathic effect; • H9/IIIB, H9 lymphocytes chronically infected by HTLV/IIIB virus; • MT4 and C8166, T lymphocytes lines, CD4+ permissive for HIV replication. In C8166 the virus induces a cytopathic effect which results in the formation of syncytia easily visible at the optical microscope. […]
Measurement Kind: MNTC at 96 h
Could you give the number and then its unit, please?

stdin: Which MNTC at 96 h reading was recorded for the compound Nc1ncnc2c1ncn2[C@H]1CC[C@@H](CO)O1 [ddAdo, 2',3'-didesoxyadenosine] ?
stdout: 60 µM

###

- Test Description: Cytotoxicity evaluation (cell number in Coulter after 96 hours)
- Assay type: cell-based
- Measurement Setup: human, c8166 cells
- Description: The cellular lines utilized in this study were: H9, T lymphocytes, CD4+, permissive for the HIV replication but partially resistant to its cytopathic effect; • H9/IIIB, H9 lymphocytes chronically infected by HTLV/IIIB virus; • MT4 and C8166, T lymphocytes lines, CD4+ permissive for HIV replication. In C8166 the virus induces a cytopathic effect which results in the formation of syncytia easily visible at the optical microscope. […]
The entries below come with measured CC50 at 96 h values attached.

Use these answered entries as a reference point.
INSERT INTO results (compound, value) VALUES
  ('OC[C@@H]1CC[C@H](n2cnc3c(O)ncnc32)O1 [ddIno, 2'',3''-didesoxy-inosine, reference compound]', '> 1000 µM'),
  ('CCCCCC[C@H]([C@H](C)O)n1cnc2c(N)ncnc21 (relative stereo) [EHNA, 9-(erythro-2-hydroxy-3-nonyl) adenine]', '25 µM'),
  ('OC[C@H]1O[C@@H](n2cnc3c2N=CNC[C@H]3O)[C@H](O)[C@@H]1O', '> 250 µM');

Continue with the next compound.
stdin: Fill in: CC50 at 96 h of Nc1ncnc2c1ncn2[C@H]1CC[C@@H](CO)O1 is ___
stdout: > 1000 µM

###

- System: MT4 cells
- Test Description: Cytotoxicity evaluation (cell number in Coulter after 96 hours)
- Assay type: cell-based
- Measurement Setup: human, mt4 cells, 96 h
Measurement Kind: MNTC

stdin: API: value(readout= MNTC, system= MT4 cells, query= Nc1ncnc2c1ncn2[C@H]1CC[C@@H](CO)O1 )
stdout: 1 mM

###

- Test Description: Cytotoxicity evaluation (cell number in Coulter after 96 hours)
- Assay type: cell-based
- Measurement Setup: human, mt4 cells
CC50 at 96 h reference

INSERT INTO results (compound, value) VALUES
  ('CCCCCC[C@H]([C@H](C)O)n1cnc2c(N)cccc21 (relative stereo)', '15 µM'),
  ('OC[C@H]1O[C@@H](n2cnc3c2N=CNC[C@H]3O)[C@H](O)[C@@H]1O', '> 250 µM'),
  ('CCCCCC[C@H]([C@H](C)O)n1cnc2c(N)nccc21 (relative stereo)', '30 µM');

stdin: Form field: reported CC50 at 96 h of OC[C@@H]1CC[C@H](n2cnc3c(O)ncnc32)O1 [ddIno, 2',3'-didesoxy-inosine, reference compound]
stdout: > 1000 µM
